Quick list: Herbicidal action against [%] ECHCG per entry.
# System: ECHCG
# Method: Post-emergence herbicidal action against ECHCG
# Type: in vivo, Echinochloa crus-galli
# Conditions: application rate 80 g/ha, rated visually after about 3 weeks
Measured quantity: Herbicidal action against [%] ECHCG (%)

[[record]]
compound = "COCCOC(=O)C1C=CC(NC(=O)C2(C)CC(c3cc(F)cc(C#N)c3)=NO2)C1 (mixture of isomers)"
readout_value = 90

[[record]]
compound = "CCOC(=O)[C@@H]1C=C[C@H](NC(=O)C2(C(F)(F)F)CC(c3ccccc3)=NO2)C1 (stereo partly shown)"
readout_value = 80

[[record]]
compound = "N#Cc1cccc(C2=NOC(C(=O)NC3C=CC(C(=O)O)C3)(C(F)(F)F)C2)c1 (mixture of isomers)"
readout_value = 90

[[record]]
compound = "CCOC(=O)C1C=CC(NC(=O)C2(C)CC(c3cccc(C#N)c3)=NO2)C1 (mixture of isomers)"
readout_value = 90

[[record]]
compound = "Cc1cc(C)cc(C2=NOC(C(=O)NC3C=CC(C(=O)OCC(F)(F)F)C3)(C(F)(F)F)C2)c1 (mixture of isomers)"
readout_value = 80

[[record]]
compound = "COC(=O)[C@@H]1C=C[C@H](NC(=O)C2(C(F)(F)F)CC(c3cc(C)cc(Cl)c3)=NO2)C1 (stereo partly shown)"
readout_value = 80

[[record]]
compound = "C=CC1(C(=O)NC2C=CC(C(=O)OC(C)(C)C)C2)CC(c2cc(F)cc(F)c2)=NO1 (mixture of isomers)"
readout_value = 90

[[record]]
compound = "Cc1cc(F)cc(C2=NOC(C(=O)N[C@H]3C=C[C@@H](C(=O)OCCCl)C3)(C(F)(F)F)C2)c1 (stereo partly shown)"
readout_value = 80

[[record]]
compound = "O=C(C1C=CC(NC(=O)C2(C(F)(F)F)CC(c3cc(F)cc(F)c3)=NO2)C1)N1CCCO1 (mixture of isomers)"
readout_value = 90

[[record]]
compound = "COC(=O)[C@@H]1C=C[C@H](NC(=O)C2(C(F)(F)F)CC(c3cc(F)cc(C#N)c3)=NO2)C1 (single isomer, unassigned) [Example I-098]"
readout_value = 90

[[record]]
compound = "O=C(OCC(F)(F)F)C1C=CC(NC(=O)C2(C(F)(F)F)CC(c3cccc(Cl)c3)=NO2)C1 (mixture of isomers)"
readout_value = 80

[[record]]
compound = "C=CC1(C(=O)NC2CC=C(C(=O)NS(N)(=O)=O)C2)CC(c2cc(F)cc(F)c2)=NO1 (mixture of isomers)"
readout_value = 90

[[record]]
compound = "CCOC(=O)[C@@H]1C=C[C@H](NC(=O)C2(OC)CC(c3cc(F)cc(F)c3)=NO2)C1 (stereo partly shown)"
readout_value = 80


###

# Tested on: ECHCG
# Method: Post-emergence herbicidal action against ECHCG
# Format: in vivo, Echinochloa crus-galli
# Conditions: application rate 80 g/ha, rated visually after about 3 weeks
Measured quantity: Herbicidal action against [%] ECHCG (%)

[[record]]
compound = "O=C(OCCCl)C1C=CC(NC(=O)C2(C(F)(F)F)CC(c3cc(Cl)cc(Cl)c3)=NO2)C1 (mixture of isomers)"
quantity_unit = "%"
readout_value = 90

[[record]]
compound = "C=CC1(C(=O)N[C@H]2C=C[C@@H](C(=O)OCCC(F)(F)F)C2)CC(c2cc(F)cc(F)c2)=NO1 (some centres unmarked)"
quantity_unit = "%"
readout_value = 100

[[record]]
compound = "CC1(C(=O)N[C@H]2C=C[C@@H](C(=O)OCC(F)(F)F)C2)CC(c2cc(F)cc(F)c2)=NO1 (some centres unmarked)"
quantity_unit = "%"
readout_value = 90

[[record]]
compound = "C=CC1(C(=O)NC2C=CC(C(=O)O)C2)CC(c2cc(F)cc(F)c2)=NO1 (centres unmarked) [Example I-011]"
quantity_unit = "%"
readout_value = 90

[[record]]
compound = "CC1(C(=O)N[C@H]2C=C[C@@H](C(=O)O)C2)CC(c2cccc(F)c2)=NO1 (some centres unmarked)"
quantity_unit = "%"
readout_value = 80

[[record]]
compound = "CCOCCOC(=O)[C@@H]1C=C[C@H](NC(=O)[C@@]2(C(F)(F)F)CC(c3cc(F)cc(F)c3)=NO2)C1"
quantity_unit = "%"
readout_value = 80

[[record]]
compound = "C=CC1(C(=O)NC2C=CC(C(=O)NS(=O)(=O)CCC)C2)CC(c2cc(F)cc(F)c2)=NO1 (mixture of isomers)"
quantity_unit = "%"
readout_value = 100

[[record]]
compound = "COC(=O)C1C=CC(NC(=O)C2(C)CC(c3cc(F)cc(C#N)c3)=NO2)C1 (mixture of isomers)"
quantity_unit = "%"
readout_value = 90

[[record]]
compound = "COc1cc(OC)cc(C2=NOC(C(=O)NC3C=CC(C(=O)OCC(F)(F)F)C3)(C(F)(F)F)C2)c1 (mixture of isomers)"
quantity_unit = "%"
readout_value = 80

[[record]]
compound = "CCOC(=O)[C@@H]1C=C[C@H](NC(=O)C2(C(F)(F)F)CC(c3cc(C)cc(Cl)c3)=NO2)C1 (some centres unmarked)"
quantity_unit = "%"
readout_value = 80

[[record]]
compound = "C=CC1(C(=O)NC2C=CC(C(=O)OCCCl)C2)CC(c2cc(F)cc(F)c2)=NO1 (mixture of isomers)"
quantity_unit = "%"
readout_value = 100

[[record]]
compound = "C=CC1(C(=O)NC2C=CC(C(=O)NC(C(=O)OC)C(C)C)C2)CC(c2cc(F)cc(F)c2)=NO1 (mixture of isomers) [II-25]"
quantity_unit = "%"
readout_value = 80

[[record]]
compound = "CONC(=O)C1=CCC(NC(=O)C2(C)CC(c3cccc(F)c3)=NO2)C1 (mixture of isomers)"
quantity_unit = "%"
readout_value = 80

[[record]]
compound = "N#Cc1cc(F)cc(C2=NOC(C(=O)N[C@H]3C=C[C@@H](C(=O)OCC(F)(F)F)C3)(C(F)(F)F)C2)c1 (some centres unmarked)"
quantity_unit = "%"
readout_value = 80

